All values here come from PubChem BioAssay AID2685.

Listed here are molecules together with their documented cell number change.
# MEASUREMENT_DESCRIPTION: qHTS Assay for Lipid Storage Modulators in Drosophila S3 Cells;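 as to cell number change: cells counted by Cell Tracker Red CMTPX staining in the red channel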
# CONDITIONS: BODIPY lipid droplet fluorescence, 18-24 h, cells fed with added oleic acid; measured here: cell count max response
Among all 320,000 compounds or so, about 2,100 (0.66%) were called active. Inconclusive results (about 53%) are left out. The sample holds actives, similar compounds and a random draw of the others, so the mix is not that of the screen.
Dear colleague, please return just the value in %, with no unit written.

Example cases with answers are listed next.
MOLECULE | RESULT_NUMBER
CCOC(=O)c1c(NC(=O)c2ccc(C)cc2)sc2c1CC(C)(C)NC2(C)C | -1.96
O=C(CNc1cccc2ccccc12)N/N=C/c1ccc([N+](=O)[O-])o1 | -25.8
CCCC(=O)Nc1ccc(C(=O)N/N=C/c2ccc([N+](=O)[O-])o2)cc1 | -15.2
CCn1cc(CN2CCN(Cc3ccc(OC)c(C)c3C)C(CCO)C2)c(C)n1 (stereo unspecified) | 2.86
COc1cccc(CN2CCN(C3CCN(c4ccccc4C)CC3)CC2CCO)c1 (stereo unspecified) | -24
O=C(NCCC1=CCCCC1)c1ccc(-n2cncn2)c([N+](=O)[O-])c1 | -27
CCN(/C=N/S(=O)(=O)c1ccc(Cl)cc1)CC | 6.24
CCCCCCCC(=O)N/N=C/c1ccc([N+](=O)[O-])o1 | -5.79
C=C(C)CSc1nnc([C@@H]2CCCN2)o1 | 9.92
O=C(CNc1cccc2ccccc12)N/N=C/c1ccc([N+](=O)[O-])cc1 | -4.75

For "CCOc1ccc(-n2c(N)c(C(=O)NCc3ccco3)sc2=S)cc1" the molecule record lists cell number change as 1.94

====

# MEASUREMENT_DESCRIPTION: qHTS Assay for Lipid Storage Modulators in Drosophila S3 Cells
# CONDITIONS: BODIPY lipid droplet fluorescence, 18-24 h, cells fed with added oleic acid; series mostly up to 46.1 µM
Hit rate of the full screen: of about 320,000 compounds, about 2,100 (0.66%) were called active. About 53% were inconclusive and are not listed. The call rests on the fitted dose curve; in most records, active means well fitted inhibition curve with a large enough effect in the signal ratio, with a control signal flat (not every such curve was filed as active); inconclusive means small, poorly fitted or top-dose-only effect, or effect the other way, or a change in a side signal; inactive means flat fitted curve, though single readings scatter; the % refers to the signal ratio. The sample holds actives, similar compounds and a random draw of the others, so the mix is not that of the screen.
Pick one and only one: 1 for active, 0 for inactive

COMPOUND | CLASS
c1ccc2c(c1)CCc1c(-c3ccncc3)n[nH]c1-2 | 1

Please examine the following record next.
// query Called result for "COc1ccc(-n2c(O)c(/C=N/NS(=O)(=O)c3cccc([N+](=O)[O-])c3)c3ccccc3c2=O)cc1OC"
// result 1

====

# MEASUREMENT_DESCRIPTION: qHTS Assay for Lipid Storage Modulators in Drosophila S3 Cells;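 as to cell number change: cells counted by Cell Tracker Red CMTPX staining in the red channel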
# CONDITIONS: BODIPY lipid droplet fluorescence, 18-24 h, cells fed with added oleic acid; measured here: cell count max response
About 2,100 (0.66%) of roughly 320,000 compounds were called active. Not shown: some 53% with an inconclusive outcome. The list comes from a sample in which actives are over-represented; it also holds close analogues and randomly drawn compounds.
READOUT: cell number change (%)
Dear colleague, please return just the value in %, with no unit written.

Example cases with answers are listed next.
COMPOUND | READOUT | SCALE_UNIT | RESULT_NUMBER
Cc1ccn2cc(-c3cccc(S(=O)(=O)N4CC(C)OC(C)C4)c3)nc2c1 (stereo unspecified) | cell number change | % | 5.5
COc1ccc(NS(=O)(=O)c2cc(NC(=O)COc3ccccc3F)ccc2OC)cc1 | cell number change | % | -1.34
CC(=O)Nc1ccc(S(=O)(=O)Nc2nc3ccc(C)cc3s2)cc1 | cell number change | % | 6.47
Cc1ccc2nc(-c3cccc(S(=O)(=O)N4CC(C)OC(C)C4)c3)cn2c1 (stereo unspecified) | cell number change | % | -15.5
Cc1ccc(-c2cc(C(F)(F)F)n3ncc(C(=O)NCc4ccco4)c3n2)cc1 | cell number change | % | -26.7
CN(C)S(=O)(=O)c1cccc(COC(=O)CCNC(=O)c2ccc([N+](=O)[O-])cc2)c1 | cell number change | % | 9.78
O=C(CNC(=O)c1ccccc1)OCc1cccc([N+](=O)[O-])c1 | cell number change | % | -2.11
O=C(CCN1CCN(C(=O)c2ccccc2)CC1)c1ccc(Br)cc1 | cell number change | % | 16

For "CC(=O)c1cccc(OCC(=O)Nc2cc(S(=O)(=O)N3CCOCC3)ccc2N2CCCC2)c1" the compound record lists cell number change as -28.5

For "O=C(Cn1cnc2c(cnn2-c2ccccc2)c1=O)Nc1cc(S(=O)(=O)N2CCOCC2)ccc1Cl" the compound record lists cell number change as -7.78

For Cc1cc(=O)oc2cc(OC(C)C(=O)NCCCn3ccnc3)ccc12 (stereo unspecified) the compound record lists cell number change as 5.93

For "O=S(=O)(c1ccc(OCc2ccc(Br)cc2)cc1)N1CCOCC1" the compound record lists cell number change as -10.6

For "Cc1cc(NC(=O)CCN2C(=O)/C(=C\c3ccccc3)SC2=S)no1" the compound record lists cell number change as -8.06

For "Cc1cc(C)nc(NS(=O)(=O)c2ccc(NC(=O)COc3ccccc3F)cc2)n1" the compound record lists cell number change as 12.7

For "Cc1csc(NC(=O)c2ccc(S(=O)(=O)N3CCCC3)cc2)n1" the compound record lists cell number change as 5.75

====

# MEASUREMENT_DESCRIPTION: qHTS Assay for Lipid Storage Modulators in Drosophila S3 Cells;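 as to cell number change: cells counted by Cell Tracker Red CMTPX staining in the red channel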
# CONDITIONS: BODIPY lipid droplet fluorescence, 18-24 h, cells fed with added oleic acid; measured here: cell count max response
Out of some 320,000 compounds screened, about 2,100 (0.66%) were called active. Another 53% or so got no clear call; they are omitted. What follows is part of a selection rich in actives, with near analogues and random picks from the rest.
Listed here are compounds together with their documented cell number change.
Dear colleague, please return just the value in %, with no unit written.

COMPOUND | cell number change [%]
COc1cc(/C=C/C(=O)Nc2ccc3nc4n(c(=O)c3c2)CCCC4)cc(OC)c1OC | -7.64

For "CCCN(CC(=O)Nc1ccccc1OC)C(=O)CCC(=O)c1ccc(F)cc1" the compound record lists cell number change as -6.3

For "CCOC(=O)CC1=NS(=O)(=O)c2ccccc2N1" the compound record lists cell number change as 8.13

For "COc1cccc(CNC(=O)C2CCN(S(=O)(=O)N3CCC4(CC3)OCCO4)CC2)c1" the compound record lists cell number change as 8.33

For "COc1ccc(C(=O)NNC(=O)c2cc3cc(OC)ccc3oc2=O)cc1" the compound record lists cell number change as 12.8

For "CCN(CC(=O)Nc1ccccc1OC)C(=O)C1CCC1" the compound record lists cell number change as 0.934

For Cc1ccccc1N1C(=O)C(Oc2ccc(Cl)cc2)C1CNCCCOC(C)C (stereo not drawn) the compound record lists cell number change as -13.5

For O=C(Nc1c2c(nn1-c1ccccc1)CS(=O)C2)c1ccc2c(c1)OCO2 (stereo not drawn) the compound record lists cell number change as 12.2

For "CCOc1ccccc1N(CC(=O)OC)S(=O)(=O)c1ccccc1" the compound record lists cell number change as 1.61

====

# MEASUREMENT_DESCRIPTION: qHTS Assay for Lipid Storage Modulators in Drosophila S3 Cells
# CONDITIONS: BODIPY lipid droplet fluorescence, 18-24 h, cells fed with added oleic acid; series mostly up to 46.1 µM
The campaign covered roughly 320,000 compounds. About 2,100 (0.66%) were called active. Roughly 53% stayed inconclusive and do not appear here. What follows is part of a selection rich in actives, with near analogues and random picks from the rest.
READOUT: outcome

COMPOUND | RESULT
COc1ccc(CCNC(=O)c2ccc3c(c2)NC(=O)C(C(C)C)N3)cc1OC (stereo not drawn) | inactive
COc1cc(S(=O)(=O)N(Cc2cccnc2)Cc2cccc(OC)c2OC)ccc1-n1cnnn1 | inactive
O=C(CSCc1ccc(F)cc1)Nc1ccc(F)cc1 | inactive

====

# MEASUREMENT_DESCRIPTION: qHTS Assay for Lipid Storage Modulators in Drosophila S3 Cells; also: potency is read from the fitted curve at half-maximal effect
# CONDITIONS: BODIPY lipid droplet fluorescence, 18-24 h, cells fed with added oleic acid; series mostly up to 46.1 µM
The campaign covered roughly 320,000 compounds. About 2,100 (0.66%) were called active. Inconclusive results (about 53%) are left out. For the sample, actives were picked, then their nearest neighbours and some compounds at random.
READOUT: Potency

COMPOUND | RESULT
COC(=O)CNC(c1ccccc1)c1cc(Br)ccc1NC(C)=O (stereo unspecified) | inactive
COCC(=O)Nc1nnc(COc2ccc(Cl)cc2)s1 | inactive
O=C(CSc1ccccc1)Nc1nnc(COc2ccc(Cl)cc2)s1 | 9.2 µM (active)
COCc1nnc(NC(=O)CSc2ccccc2)s1 | inactive
Cc1ccc(CNC(=O)C(NS(=O)(=O)c2cccs2)C(C)C)cc1 (stereo unspecified) | inactive

For COc1ccc(-n2ncc(C(C)NS(=O)(=O)c3ccc(C(C)=O)cc3)c2C)cc1 (stereo unspecified) the compound record lists Potency as inactive

For O=C(NCCc1ccccc1)C1CCCN(C(=O)Nc2ccc(F)cc2)C1 (stereo unspecified) the compound record lists Potency as inactive

For CCOc1ccc(NC(=O)C2CCC(CNc3c(N4CCCCC4)c(=O)c3=O)CC2)cc1 (stereo unspecified) the compound record lists Potency as inactive

For COC(=O)c1sccc1S(=O)(=O)NC(C)c1cnn(-c2ccc(OC)cc2)c1C (stereo unspecified) the compound record lists Potency as inactive

For CCC(NS(=O)(=O)c1cccs1)c1ccc(C)cc1 (stereo unspecified) the compound record lists Potency as 0.164 µM (active)

For Cc1ccc(CNC(=O)C(Cc2ccccc2)NS(=O)(=O)c2cccs2)cc1 (stereo unspecified) the compound record lists Potency as inactive
